For each of the compounds below, state its melting point.

Prompt line: Please report the recorded melting point for CN(C)c1c(N2CCOCC2)nc(N2CCN(c3ccccc3)CC2)nc1N1CCOCC1 .
Response line: 208 to 210 °C

Prompt line: Please report the recorded melting point for CC(C)(C)OC(=O)N1CCN(c2nc(N3CCN(c4ccccc4F)CC3)nc(N3CCOCC3)c2F)CC1 .
Response line: 137 to 138 °C

Prompt line: Please report the recorded melting point for c1ccc(-c2c(N3CCOCC3)nc(N3CCN(c4ccccc4)CC3)nc2N2CCOCC2)cc1 .
Response line: 163 to 165 °C

Prompt line: Please report the recorded melting point for c1c(N2CCOCC2)nc(N2CCOCC2)nc1N1CCN(C2CCCCC2)CC1 .
Response line: 144 to 147 °C

Prompt line: Please report the recorded melting point for Fc1c(N2CCOCC2)nc(N2CCOCC2)nc1N1CCN(C2CCCCC2)CC1 .
Response line: 125 to 128 °C

Prompt line: Please report the recorded melting point for CC(=O)c1ccc(N2CCN(c3nc(N4CCOCC4)cc(N4CCOCC4)n3)CC2)cc1 .
Response line: 162 to 166 °C

Prompt line: Please report the recorded melting point for OC1(c2ccccc2)CCN(c2cc(N3CCOCC3)nc(N3CCOCC3)n2)CC1 .
Response line: 189 to 192 °C

Prompt line: Please report the recorded melting point for CCCCN(CCCC)c1cc(N2CCOCC2)nc(N2CCN(c3ccccc3)CC2)n1 .
Response line: 84 to 85 °C

Prompt line: Please report the recorded melting point for Fc1ccc(N2CCN(c3nc(N4CCOCC4)cc(N4CCOCC4)n3)CC2)cc1 .
Response line: 196 to 199 °C

Prompt line: Please report the recorded melting point for Cc1cccc(N2CCN(c3nc(N4CCN(C)CC4)nc(N4CCOCC4)c3F)CC2)c1C .
Response line: 56 to 57 °C

Prompt line: Please report the recorded melting point for Fc1c(N2CCOCC2)nc(N2CC=C(c3ccccc3)CC2)nc1N1CCOCC1 .
Response line: 132 to 135 °C

----------
System: astrocyte/neuron co-culture
Test: Brain cell damage induced by hydrogen peroxide treatment (LDH assay)
Format: cell-based
Details: Rattus norvegicus, hydrogen peroxide (250 μM), 24 hours, read-out: 50% inhibition concentration against cell damage in entire co-culture system (EC50 value)
For each of the molecules below, state its pEC50.
In simple prose, pEC50 is minus the logarithm base ten of a concentration in moles per litre.

Prompt line: Please report the recorded pEC50 for COc1ccc(/C=C/c2nc(NCC(N)=O)c(N)c(N3CCOCC3)n2)cc1 [Compound 206] .
Response line: 5.31

Prompt line: Please report the recorded pEC50 for Cc1ccccc1N1CCN(c2nc(N3CCOCC3)cc(N3CCN(c4ccccc4)CC3)n2)CC1 [Compound 61] .
Response line: 5.19

Prompt line: Please report the recorded pEC50 for CCN(CC)c1ccc(CCCCc2nc(N3CCOCC3)c(N)c(N3CCOCC3)n2)cc1 [Compound 145] .
Response line: 6.17

Prompt line: Please report the recorded pEC50 for COc1ccc(/C=C/c2nc(N3CCOCC3)c(N)c(N3CCC(N)CC3)n2)cc1 [Compound 196] .
Response line: 5.42

Prompt line: Please report the recorded pEC50 for Cc1cccc(N2CCN(c3nc(N4CCNCC4)nc(N4CCOCC4)c3F)CC2)c1C [Compound 178] .
Response line: 6.32

Prompt line: Please report the recorded pEC50 for CC(C)(C)OC(=O)N1CCN(c2nc(N3CCCc4ccccc43)nc(N3CCOCC3)c2F)CC1 [Compound 168] .
Response line: 6.51

Prompt line: Please report the recorded pEC50 for COc1ccc(/C=C/c2nc(NCCN3CCOCC3)c(N)c(N3CCOCC3)n2)cc1 [Compound 207] .
Response line: 5.24

Prompt line: Please report the recorded pEC50 for Cc1cccc(N2CCN(c3nc(N4CCN(Cc5ccncc5)CC4)nc(N4CCOCC4)c3F)CC2)c1C [Compound 191] .
Response line: 6.14

Prompt line: Please report the recorded pEC50 for CN(C)c1nc(N2CCC(Cc3ccccc3)CC2)nc(N2CCSCC2)c1N [Compound 69] .
Response line: 6.54

Prompt line: Please report the recorded pEC50 for Cc1cccc(N2CCN(c3nc(N4CCN(Cc5ccc(N(C)C)cc5)CC4)nc(N4CCOCC4)c3F)CC2)c1C [Compound 192] .
Response line: 6.52

Prompt line: Please report the recorded pEC50 for Nc1c(N2CCOCC2)nc(N2CCN(c3ccccn3)CC2)nc1N1CCOCC1 [Compound 75] .
Response line: 5.02
